Test: Cytotoxicity counterscreen for inhibitors of SARS-CoV-2 cell entry (AID 1645845); further: nearly all actives have a fitted effect of over 50% in size
Details: cell viability (SARS-CoV-2 entry assay cells); series mostly up to 57.1 µM
Records with an inconclusive call do not appear. Active and inactive are the calls of the source. The call rests on the fitted dose curve.
Measured parameter: outcome

Worked examples, 6 compounds total:
[
  {
    "Compound": "C[C@]12C[C@@H]3S[C@H]3C[C@@H]1CC[C@H]1[C@H]3CC[C@@H](O)[C@@]3(C)CC[C@@H]12",
    "Measured parameter": "outcome",
    "Result": "inactive"
  },
  {
    "Compound": "Cc1nc(NS(=O)(=O)c2ccc(N)cc2)nc(C)c1Br",
    "Measured parameter": "outcome",
    "Result": "inactive"
  },
  {
    "Compound": "CCCCCCCCCC(=O)OCCN1CCN(CCCN2c3ccccc3Sc3ccc(C(F)(F)F)cc32)CC1",
    "Measured parameter": "outcome",
    "Result": "inactive"
  },
  {
    "Compound": "O=C1O[C@H]2[C@H](OC(O)[C@@H]2O)[C@@H]1O (some centres not stated)",
    "Measured parameter": "outcome",
    "Result": "inactive"
  },
  {
    "Compound": "O=S(=O)(NCCNC/C=C/c1ccc(Br)cc1)c1cccc2cnccc12",
    "Measured parameter": "outcome",
    "Result": "inactive"
  },
  {
    "Compound": "C/C(=C\\c1csc(C)n1)[C@@H]1C[C@@H]2O[C@]2(C)CCC[C@H](C)[C@H](O)[C@@H](C)C(=O)C(C)(C)[C@@H](O)CC(=O)N1",
    "Measured parameter": "outcome",
    "Result": "inactive"
  }
]

## Task Requested read-out: outcome. Entry: "O=C(N[C@H]1CCS[C@H]2CCC[C@@H](C(=O)O)N2C1=O)[C@@H](S)Cc1ccccc1"
## Result inactive

## Task Entry "CCN1CCN(Cc2ccc(Nc3ncc(F)c(-c4cc(F)c5nc(C)n(C(C)C)c5c4)n3)nc2)CC1" please
## Result inactive

====

Test: MultiTox-Fluor Cytotoxicity Assay - LYMP1-001 - Live Cells (AID 947)
Settings: LYMP1-001 lymphoblastoid cells, live-cell protease fluorescence viability; series mostly up to 92.2 µM
Inconclusive results are not listed. Activity calls are given as the source filed them. Calls come from the whole dose curve; as a rule, active = well fitted cell-killing curve with a large enough effect; inconclusive = small, poorly fitted or top-dose-only effect; inactive = flat fitted curve, though single readings scatter.
Select the correct class. Options are active, inactive and nothing else.

Some entries whose results are on file:
[
  {
    "Smiles record": "Brc1ccc(Oc2cc(Br)c(Br)cc2Br)c(Br)c1",
    "Answer label": "inactive"
  },
  {
    "Smiles record": "CCCC(=O)Cl",
    "Answer label": "inactive"
  },
  {
    "Smiles record": "O=[N+]([O-])c1ccc(Cl)c(Cl)c1",
    "Answer label": "inactive"
  },
  {
    "Smiles record": "CCOCN(C(=O)CCl)c1c(C)cccc1CC",
    "Answer label": "inactive"
  },
  {
    "Smiles record": "ClC(Cl)=C(Cl)Cl",
    "Answer label": "inactive"
  },
  {
    "Smiles record": "O=C(Cl)C(Cl)(Cl)Cl",
    "Answer label": "inactive"
  },
  {
    "Smiles record": "Clc1nc(Cl)nc(Nc2ccccc2Cl)n1",
    "Answer label": "inactive"
  },
  {
    "Smiles record": "Nc1ccccc1Cl",
    "Answer label": "inactive"
  },
  {
    "Smiles record": "O=C1C(Cl)=C(Cl)C(=O)C(Cl)=C1Cl",
    "Answer label": "active"
  },
  {
    "Smiles record": "O=C(Cl)/C=C/C(=O)Cl",
    "Answer label": "inactive"
  }
]

## Task Any idea what this test logged for "CCN(CC)c1ccccc1" ?
## Result inactive

## Task Consider next the molecule "C=CCOC(C)=O" in the same way.
## Result inactive

## Task Similarly, "CNC(=O)O/N=C/C(C)(C)SC" ?
## Result inactive

## Task Queued: "c1ccc(OP(Oc2ccccc2)Oc2ccccc2)cc1"
## Result inactive

## Task Please give the result for "C=CCOC(=O)c1ccccc1N" too.
## Result inactive

## Task Follow-up entry: "NC(=S)Nc1ccccc1"
## Result inactive

The reported numbers originate from PubChem BioAssay (NCATS).
